# test-method-notes: 10x dilution of soluble forms with standard IV solutions (pH, precipitate)
# Type: physicochemical
# study-conditions: concentrated Cpd B solution (155-221 mg/ml) diluted 10x with 0.9% NaCl; precipitate at 4 hr
observation-type: Solution 1 ppt 4 hr

[
  {
    "molecule": "CCn1cc(C(=O)O)c(=O)c2cc(F)c(N3CCNCC3)nc21 [B Lactic]",
    "reported-measurement": "yes"
  },
  {
    "molecule": "CCn1cc(C(=O)O)c(=O)c2cc(F)c(N3CCNCC3)nc21 [B L-Glutamic]",
    "reported-measurement": "no"
  },
  {
    "molecule": "CCn1cc(C(=O)O)c(=O)c2cc(F)c(N3CCNCC3)nc21 [B L-Cysteic]",
    "reported-measurement": "yes"
  },
  {
    "molecule": "CCn1cc(C(=O)O)c(=O)c2cc(F)c(N3CCNCC3)nc21 [B L-Aspartic]",
    "reported-measurement": "no"
  },
  {
    "molecule": "CCn1cc(C(=O)O)c(=O)c2cc(F)c(N3CCNCC3)nc21 [B Isethionic]",
    "reported-measurement": "no"
  },
  {
    "molecule": "CCn1cc(C(=O)O)c(=O)c2cc(F)c(N3CCNCC3)nc21 [B D-Gluconic]",
    "reported-measurement": "no"
  },
  {
    "molecule": "CCn1cc(C(=O)O)c(=O)c2cc(F)c(N3CCNCC3)nc21 [B Methane Sulphonic]",
    "reported-measurement": "yes"
  },
  {
    "molecule": "CCn1cc(C(=O)O)c(=O)c2cc(F)c(N3CCNCC3)nc21 [B Acetic]",
    "reported-measurement": "yes"
  }
]

Measured values drawn from patent EP0067666A1 for this set.
